Test system: UO-31 renal
Test: NCI tumour cell line growth inhibition, 48 h; in the data active means GI50 below about 0.43 µM; inactive means the rest
// one of yes (1) (active), no (0) (inactive), no free text

Ask: State the result this test recorded for `[Au+].[Au+].[Au+].[c-]1nccn1Cc1ccccc1.[c-]1nccn1Cc1ccccc1.[c-]1nccn1Cc1ccccc1` .
Result: no (0)

Ask: State the result this test recorded for CCCCC1(CN2CCOCC2)S/C(=N/c2nc(CC(=O)OCC)cs2)NC1=O (centres undefined) .
Result: no (0)

Ask: State the result this test recorded for `CC(=O)O[C@H](C[C@H](C(C)C)N(C)C(=O)[C@@H](NC(=O)[C@H]1CCCCN1C)C(C)C)c1nc(C(=O)N[C@@H](Cc2ccccc2)C[C@H](C)C(=O)O)c(CCOCc2ccccc2)s1` .
Result: yes (1)

Ask: State the result this test recorded for `O=C(COc1ccc(/C=C2\CSc3ccccc3C2=O)cc1)Nc1nccs1` .
Result: no (0)

Ask: State the result this test recorded for `O=C(Nc1ccc(-n2cc(-c3ccncc3)c(-c3ccc(Cl)c(O)c3)n2)cc1)Nc1ccc(Cl)c(C(F)(F)F)c1` .
Result: no (0)

Ask: State the result this test recorded for Cc1cc(C2CC(O)C(CO)O2)cc2c(=O)[nH]c(N)nc12 (centres undefined) .
Result: no (0)

Ask: State the result this test recorded for `Cc1cc(I)cc(CN(C)CCCN2CCOCC2)c1O` .
Result: no (0)

Ask: State the result this test recorded for `NC(N)=NCCCCCNc1noc(Cc2c[nH]c3cc(Br)ccc23)n1` .
Result: no (0)

Ask: State the result this test recorded for `Nc1nc(SN=Nc2ccc(S(N)(=O)=O)cc2)c2[nH]cnc2n1` .
Result: no (0)

====

Tested on: SN12C renal
Test: NCI tumour cell line growth inhibition, 48 h
I'd be grateful if you could share measured TGI for these entries.

Ask: I'd like to know its TGI. The compound in question is `COC(=O)C1=C2SCc3cccc(c3)CSC3=C(C(=O)OC)SC(=C(S2)S1)S3`
Result: > 100 µM

Ask: I'd like to know its TGI. The compound in question is COc1cc(C2SCC(=O)N2c2ccc(-c3ccc(-n4c(-c5ccccc5)nc5ccccc5c4=O)cc3)cc2)cc(OC)c1OC (stereo not given)
Result: > 100 µM

Ask: I'd like to know its TGI. The compound in question is `N#Cc1c(-c2ccccc2)nc(-c2ccccc2)sc1=S`
Result: > 100 µM

Ask: I'd like to know its TGI. The compound in question is `CC(C)C(=O)/C=C/c1ccc(Br)cc1`
Result: 28.5 µM

Ask: I'd like to know its TGI. The compound in question is `COc1ccc2c(O)cc3c(c2c1)[C@H](CCl)CN3C(=O)c1cc2cc(NC(=O)CCN3CCOCC3)ccc2[se]1`
Result: 0.0334 µM

Ask: I'd like to know its TGI. The compound in question is C=C1C[C@]23CCC4C(C)(C)C(=O)CC[C@]4(C)C2C[C@H]1C(O)C3=O (stereo not given in full)
Result: > 75 µM

Ask: I'd like to know its TGI. The compound in question is `O=C(CSc1nnc(Cc2ccccc2)o1)Nc1ccc([N+](=O)[O-])cc1`
Result: > 100 µM

Ask: I'd like to know its TGI. The compound in question is `Nc1ccc2[nH]c3c(-c4ccccc4)nccc3c2c1`
Result: > 100 µM

Ask: I'd like to know its TGI. The compound in question is `COc1ccc2ncn(-c3cc(O[C@H](C)c4ccccc4Cl)c(C(N)=O)s3)c2c1`
Result: > 25 µM

Ask: I'd like to know its TGI. The compound in question is CC1CCC(=O)C(C(=O)CC2CC(=O)NC(=O)C2)C1 (stereo not given)
Result: > 100 µM

Ask: I'd like to know its TGI. The compound in question is `Cc1ccc(-c2cc(N)n(-c3nc4c(c(=O)n(C)c(=O)n4C)n3C)n2)cc1`
Result: > 100 µM

Ask: I'd like to know its TGI. The compound in question is `O=C1Nc2c(ccc(Cl)c2I)C1=O`
Result: 30.9 µM

Ask: I'd like to know its TGI. The compound in question is COc1ccc(C2c3cc(OC)c(OC)cc3C(Cc3ccc([N+](=O)[O-])cc3)C2c2ccc([N+](=O)[O-])cc2)cc1OC (stereo not given)
Result: > 100 µM

Ask: I'd like to know its TGI. The compound in question is `NCCN=C(Nc1ccccc1)Nc1ccccc1`
Result: > 100 µM

Ask: I'd like to know its TGI. The compound in question is `COc1ccc(-c2oc3cc(O)c(OC)c(O)c3c(=O)c2OC)cc1O`
Result: > 100 µM
